Target: His-tagged KRAS G12D protein (Homo sapiens, UniProt P01116, G12D)
Sequence (P01116 1-188 isoform P01116-2 G12D): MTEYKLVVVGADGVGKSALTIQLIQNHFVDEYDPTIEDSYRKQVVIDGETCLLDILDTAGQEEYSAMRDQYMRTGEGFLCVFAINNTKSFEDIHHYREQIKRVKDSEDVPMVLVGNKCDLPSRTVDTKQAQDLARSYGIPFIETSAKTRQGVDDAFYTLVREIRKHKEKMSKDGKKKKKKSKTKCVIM
Assay: KRAS G12D TR-FRET Assay
pIC50: −log10 of the molar value.

MOLECULE | pIC50
CCc1c(F)ccc2cc(O)cc(-c3c(F)cc4c(N5C[C@@H]6CC[C@H]5CN6)nc(OC[C@@H]5C[C@@H](F)CN5C)nc4c3F)c12 | 8.30
Oc1cc(-c2c(F)cc3c(N4C[C@@H]5CC[C@H]4CN5)nc(OCC45CCCN4C[C@H](F)C5)nc3c2F)c2c(F)c(F)ccc2c1 (atropisomer, axis not shown; (M)) | 9.00
Oc1cc(-c2c(F)cc3c(N4[C@@H]5CC[C@H]4CNC5)nc(OC[C@@]45CCCN4C[C@H](F)C5)nc3c2F)c2c(F)c(F)ccc2c1 | 8.70
CCc1c(F)ccc2cc(O)cc(-c3c(F)cc4c(N5CCC6CCC(C5)N6)nc(OC[C@@]56CCCN5C[C@H](F)C6)nc4c3F)c12 (stereo partly drawn) | 8.22
C#Cc1cccc2cccc(-c3c(F)cc4c(N5[C@@H]6CC[C@H]5CNC6)nc(OC[C@@]56CCCN5C[C@H](F)C6)nc4c3F)c12 | 8.10
CCc1cccc2cc(O)cc(-c3ccc4c(N5C[C@H]6CC[C@@H](C5)N6)nc(OC[C@@]56CCCN5C[C@H](F)C6)nc4c3F)c12 | 8.30
